# target.or.system: human recombinant trypsin (r-h trypsin) (Homo sapiens (Human))
# procedure.details: Inhibitory activity of trypsin enzyme (human recombinant trypsin, BZiPAR fluorescent substrate)
# study.conditions: human recombinant trypsin 0.088 μg/mL, 30 minutes at room temperature
pIC50: −log10 of the molar value. Counter-ions that a name gives are not always drawn.
property.name: pIC50

Answered cases to consult:
compound=CC(C)(Oc1ccc(C[C@H](NC(=O)CCc2ccc(OC(=O)c3ccc(NC(=N)N)cc3)cc2Cl)C(=O)O)cc1)C(=O)O data_value=9.66
compound="N=C(N)Nc1ccc(C(=O)Oc2ccc(CCC(=O)NC(Cc3ccccc3)C(=O)O)c(Cl)c2)cc1 (centres unmarked)" data_value=9.29
compound=CN(C(=O)N(CC(=O)O)Cc1csc(C(=O)O)c1)c1ccc(OC(=O)c2ccc(NC(=N)N)cc2)cc1Cl data_value=9.27
compound=N=C(N)Nc1ccc(C(=O)Oc2ccc(CCC(=O)N(CC(=O)O)Cc3cccc(C(=O)O)c3)c(Cl)c2)cc1 data_value=9.37

I. N=C(N)Nc1ccc(C(=O)Oc2ccc(CC(=O)N[C@@H](Cc3c[nH]cn3)C(=O)O)c(Cl)c2)cc1 [Example 2, hydrochloride]
II. N=C(N)Nc1ccc(C(=O)Oc2ccc(CCC(=O)N(Cc3cccc(C(=O)O)c3)Cc3cccc(C(=O)O)c3)c(Cl)c2)cc1
Query :: Which item exceeds the other in pIC50, I or II ? Please indicate the selected item by its label.
Result :: II
(II: 9.40, I: 9.04)

I. N=C(N)Nc1ccc(C(=O)Oc2ccc(CCC(=O)N(CCc3cccc(C(=O)O)c3)CC(=O)O)c(Cl)c2)cc1
II. N=C(N)Nc1ccc(C(=O)Oc2ccc(CC(=O)N(CCc3ccccc3)CC(=O)O)c(Cl)c2)cc1
Query :: Rank I against II by their pIC50 values and give the higher one. Please reply using the label of the selected record.
Result :: II
(II: 9.36, I: 9.14)

1. N=C(N)Nc1ccc(C(=O)Oc2ccc(CC(=O)N[C@@H](Cc3ccc(C(=O)O)cc3)C(=O)O)c(Cl)c2)cc1
2. N=C(N)Nc1ccc(C(=O)Oc2ccc(CCC(=O)N(CCC(=O)O)Cc3cccc(C(=O)O)c3)c(Cl)c2)cc1
Query :: For the two items 1 and 2 , which reports the higher pIC50 value? In your reply, give the label of the chosen option.
Result :: 2

* * *

# target.or.system: mouse trypsin (m-trypsin)
# procedure.details: Inhibitory activity of trypsin enzyme (mouse trypsin purified from small intestine contents, BZiPAR fluorescent substrate)
# study.conditions: mouse trypsin diluted 1/50, BZiPAR substrate, 30 minutes at room temperature
property.name: IC50 (nM)

Reference set, count: 4
compound="N=C(N)Nc1ccc(C(=O)Oc2ccc(CCC(=O)N(CCc3cccc(C(=O)O)c3)CC(=O)O)c(Cl)c2)cc1 [Example 58]" value_unit=nM data_value=0.68
compound="N=C(N)Nc1ccc(C(=O)Oc2ccc(CC(=O)N[C@@H](Cc3ccccc3)C(=O)O)c(C(F)(F)F)c2)cc1 [Example 25]" value_unit=nM data_value=0.25
compound="N=C(N)Nc1ccc(C(=O)Oc2ccc(CC(=O)N[C@@H](Cc3ccccc3)C(=O)O)c(-c3ccccc3)c2)cc1 [Example 17]" value_unit=nM data_value=0.27
compound="N=C(N)Nc1ccc(C(=O)Oc2ccc3nc(C(=O)N(CC(=O)O)Cc4cccc(C(=O)O)c4)ccc3c2)cc1 [Example 59]" value_unit=nM data_value=0.31

A. N=C(N)Nc1ccc(C(=O)Oc2ccc(CC(=O)N(CCc3ccccc3)CC(=O)O)c(Cl)c2)cc1 [Example 35]
B. N=C(N)Nc1ccc(C(=O)Oc2ccc(CC(=O)N[C@@H](Cc3ccc(C(=O)O)cc3)C(=O)O)c(Cl)c2)cc1 [Example 13]
C. N=C(N)Nc1ccc(C(=O)Oc2ccc(CCN(CC(=O)O)Cc3cccc(C(=O)O)c3)c(Cl)c2)cc1 [Example 65]
Query :: Sort the 3 compounds by IC50; largest first, smallest last. Quick reminder: the answer is the labels in the order asked.
Result :: B, C, A
(B: 0.84 nM, C: 0.45 nM, A: 0.28 nM)

* * *

# target.or.system: human recombinant trypsin (r-h trypsin) (Homo sapiens (Human))
# procedure.details: Inhibitory activity of trypsin enzyme (human recombinant trypsin, BZiPAR fluorescent substrate)
# Assay type: biochemical
# study.conditions: human recombinant trypsin 0.088 μg/mL, 30 minutes at room temperature
property.name: IC50 (nM)

Worked examples follow.
smiles_entry=N=C(N)Nc1ccc(C(=O)Oc2ccc(CC(=O)N(CC(=O)O)[C@@H](Cc3ccccc3)C(=O)O)c(Cl)c2)cc1 value_unit=nM data_value=0.5
smiles_entry=N=C(N)Nc1ccc(C(=O)Oc2ccc(CCC(=O)N(CC(=O)O)Cc3ccccc3C(=O)O)c(Cl)c2)cc1 value_unit=nM data_value=0.45

1. N=C(N)Nc1ccc(C(=O)Oc2cc(F)c(CC(=O)N[C@@H](Cc3ccccc3)C(=O)O)c(F)c2)cc1
2. N=C(N)Nc1ccc(C(=O)Oc2ccc(CC(=O)N[C@@H](Cc3ccccc3)C(=O)O)c(-c3ccccc3)c2)cc1
Query :: Rank 1 against 2 by their IC50 values and give the higher one. Could you answer with the label of the item you picked?
Result :: 2
(2: 0.43 nM, 1: 0.21 nM)

A. N=C(N)Nc1ccc(C(=O)Oc2ccc(CC(=O)N[C@@H](Cc3cccc(F)c3)C(=O)O)c(Cl)c2)cc1
B. N=C(N)Nc1ccc(C(=O)Oc2ccc(CCCC(=O)N(CC(=O)O)Cc3cccc(C(=O)O)c3)c(Cl)c2)cc1
Query :: Kindly identify which of A and B has the larger recorded IC50 value. I would appreciate it if you answered with the label of your choice.
Result :: B

* * *

# target.or.system: mouse trypsin (m-trypsin)
# procedure.details: Inhibitory activity of trypsin enzyme (mouse trypsin purified from small intestine contents, BZiPAR fluorescent substrate)
# study.conditions: mouse trypsin diluted 1/50, BZiPAR substrate, 30 minutes at room temperature
pIC50: −log10 of the molar value.
property.name: pIC50

smiles_entry=N=C(N)Nc1ccc(C(=O)Oc2ccc(CCC(=O)N(CC(=O)O)Cc3cccc(C(=O)O)c3)c(Cl)c2)cc1 target_or_system="mouse trypsin (m-trypsin)" property_name=pIC50 data_value=9.42
smiles_entry=N=C(N)Nc1ccc(C(=O)Oc2ccc3nc(C(=O)N(CC(=O)O)Cc4csc(C(=O)O)c4)ccc3c2)cc1 target_or_system="mouse trypsin (m-trypsin)" property_name=pIC50 data_value=9.52

a. N=C(N)Nc1ccc(C(=O)Oc2ccc(CC(=O)N[C@@H](Cc3ccc(C(F)(F)F)cc3)C(=O)O)c(Cl)c2)cc1
b. N=C(N)Nc1ccc(C(=O)Oc2ccc(CC(=O)N[C@@H](Cc3ccccc3)C(=O)O)c(Cl)c2Cl)cc1
Query :: pIC50 comparison. Which is larger, a or b ? When you have decided, please share the label of that item.
Result :: b
(b: 9.74, a: 9.47)

* * *

# target.or.system: human recombinant trypsin (r-h trypsin) (Homo sapiens (Human), UniProt P07477)
# procedure.details: Inhibitory activity of trypsin enzyme (human recombinant trypsin, BZiPAR fluorescent substrate)
# study.conditions: human recombinant trypsin 0.088 μg/mL, 30 minutes at room temperature
property.name: IC50 (nM)

Worked cases, answers included:
smiles_entry=N=C(N)Nc1ccc(C(=O)Oc2ccc3nc(C(=O)Nc4ccc(CC(=O)O)cc4)ccc3c2)cc1 value_unit=nM data_value=0.29
smiles_entry=N=C(N)Nc1ccc(C(=O)Oc2ccc(CC(=O)N[C@@H](Cc3ccc(OCC(=O)O)cc3)C(=O)O)c(Cl)c2)cc1 value_unit=nM data_value=0.88
smiles_entry=N=C(N)Nc1ccc(C(=O)Oc2ccc(CCCCC(=O)N[C@@H](Cc3ccccc3)C(=O)O)c(Cl)c2)cc1 value_unit=nM data_value=0.38

I. N=C(N)Nc1ccc(C(=O)Oc2ccc(CC(=O)N[C@@H](Cc3ccccc3)C(=O)O)c(Cl)c2Cl)cc1
II. N=C(N)Nc1ccc(C(=O)Oc2ccc(CCC(=O)Nc3ccc(CC(=O)O)cc3)c(Cl)c2)cc1
Query :: So which one has the bigger IC50 here, I or II ? Please reply using the label of the selected record.
Result :: II

* * *

# target.or.system: mouse trypsin (m-trypsin)
# procedure.details: Inhibitory activity of trypsin enzyme (mouse trypsin purified from small intestine contents, BZiPAR fluorescent substrate)
# study.conditions: mouse trypsin diluted 1/50, BZiPAR substrate, 30 minutes at room temperature
property.name: IC50 (nM)

smiles_entry=N=C(N)Nc1ccc(C(=O)Oc2ccc(CCC(=O)N(CC(=O)O)Cc3ccccc3C(=O)O)c(Cl)c2)cc1 data_value=0.35
smiles_entry=N=C(N)Nc1ccc(C(=O)Oc2ccc(CCC(=O)N(CC(=O)O)Cc3cccc(CC(=O)O)c3)c(Cl)c2)cc1 data_value=0.39
smiles_entry=N=C(N)Nc1ccc(C(=O)Oc2ccc(CCCCC(=O)N[C@@H](Cc3ccccc3)C(=O)O)c(Cl)c2)cc1 data_value=0.34

* * *

# target.or.system: human recombinant trypsin (r-h trypsin) (Homo sapiens (Human))
# procedure.details: Inhibitory activity of trypsin enzyme (human recombinant trypsin, BZiPAR fluorescent substrate)
# study.conditions: human recombinant trypsin 0.088 μg/mL, 30 minutes at room temperature
property.name: IC50 (nM)

smiles_entry=CC(C)(Oc1ccc(C[C@H](NC(=O)Cc2ccc(OC(=O)c3ccc(NC(=N)N)cc3)cc2Cl)C(=O)O)cc1)C(=O)O target_or_system="human recombinant trypsin (r-h trypsin) (Homo sapiens (Human))" data_value=0.66
smiles_entry=N=C(N)Nc1ccc(C(=O)Oc2ccc(CC(=O)N[C@@H](Cc3ccccc3)C(=O)O)c(C(F)(F)F)c2)cc1 target_or_system="human recombinant trypsin (r-h trypsin) (Homo sapiens (Human))" data_value=0.29

A. N=C(N)Nc1ccc(C(=O)Oc2ccc(CCN(CC(=O)O)Cc3cccc(C(=O)O)c3)c(Cl)c2)cc1
B. CN(C(=O)Cc1ccc(OC(=O)c2ccc(NC(=N)N)cc2)cc1Cl)[C@@H](Cc1ccccc1)C(=O)O
Query :: Rank A against B by their IC50 values and give the higher one. Respond with the label that goes with your answer.
Result :: B
(B: 0.88 nM, A: 0.4 nM)
